Biological target: T1, XPF-HLD (human, UniProt Q92889 12-672)
T1 sequence: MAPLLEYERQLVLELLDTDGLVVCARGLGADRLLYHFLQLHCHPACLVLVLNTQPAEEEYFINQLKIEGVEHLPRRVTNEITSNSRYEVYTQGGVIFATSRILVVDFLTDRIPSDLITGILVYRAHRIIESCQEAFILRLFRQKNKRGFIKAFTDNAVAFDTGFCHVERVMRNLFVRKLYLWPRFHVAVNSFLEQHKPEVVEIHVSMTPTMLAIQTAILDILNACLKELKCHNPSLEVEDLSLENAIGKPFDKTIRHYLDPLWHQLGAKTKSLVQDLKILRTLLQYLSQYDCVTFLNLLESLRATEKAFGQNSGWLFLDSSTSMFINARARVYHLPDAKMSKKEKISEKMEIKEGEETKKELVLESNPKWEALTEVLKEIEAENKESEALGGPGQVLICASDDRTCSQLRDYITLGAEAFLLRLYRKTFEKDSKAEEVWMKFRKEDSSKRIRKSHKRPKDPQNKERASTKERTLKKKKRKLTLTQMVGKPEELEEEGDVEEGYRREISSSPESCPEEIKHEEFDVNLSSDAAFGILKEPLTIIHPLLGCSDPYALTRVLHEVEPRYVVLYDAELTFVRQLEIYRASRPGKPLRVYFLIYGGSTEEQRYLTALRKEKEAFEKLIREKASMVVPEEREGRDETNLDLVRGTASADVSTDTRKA
Assay: fluorescence polarization
measured-property: Kd (nM)
Only the number, expressed in nM, is required.

Name the recorded Kd of the binder listed here: CAGCGCCTGGTTTTTTTTTTTTTTTTTTTTCCAGGCGCTG (structured_DNA) [Stem10-loop20 X=C Y=T] 63
